MIC values by entry
Tested on: S.aureus SK 23390
experiment: In vitro antibacterial activity (MIC)
Assay type: cell-based
condition: Staphylococcus aureus, SK23390; S.aureus SK 23390, in vitro; read-out: MIC
experimental-endpoint: MIC (µg/mL)

>>> recorded_result("CC1=C(C(=O)O)N2C(=O)C(NC(=O)C(N)c3ccc(OCC(=O)O)cc3)C2SC1 (racemic)")
50
>>> recorded_result("Cn1nnnc1SCC1=C(C(=O)O)N2C(=O)C(NC(=O)[C@H](N)c3ccc(NCC(=O)O)cc3)C2SC1 (stereo partly drawn)")
6.3
>>> recorded_result("Cn1nnnc1SCC1=C(C(=O)O)N2C(=O)C(NC(=O)[C@H](N)c3ccc(OCC(N)=O)cc3)C2SC1 (stereo partly drawn)")
6.3
>>> recorded_result("Cc1nnc(SCC2=C(C(=O)O)N3C(=O)C(NC(=O)[C@H](N)c4ccc(SCCC(=O)O)cc4)C3SC2)s1 (stereo partly drawn)")
6.3
>>> recorded_result("CC1=C(C(=O)O)N2C(=O)C(NC(=O)[C@H](N)c3ccc(OCC(N)=O)cc3)C2SC1 (stereo partly drawn)")
3.1
>>> recorded_result("COC(=O)CNc1ccc([C@@H](N)C(=O)NC2C(=O)N3C(C(=O)O)=C(CSc4nnc(C)s4)CSC23)cc1 (stereo partly drawn)")
6.3

###

Tested on: Kleb. pneumo. SK 4200
experiment: In vitro antibacterial activity (MIC)
Assay type: cell-based
condition: Kleb. pneumo. SK 4200, in vitro; read-out: MIC
molecules and their reported MIC
experimental-endpoint: MIC (µg/mL)

>>> recorded_result("N[C@@H](C(=O)NC1C(=O)N2C(C(=O)O)=C(CSc3c[nH]nn3)CSC12)c1ccc(OCC(=O)O)cc1 (stereo partly shown) [Compound No. 03326]")
6.3
>>> recorded_result("N[C@@H](C(=O)NC1C(=O)N2C(C(=O)O)=C(CSc3c[nH]nn3)CSC12)c1ccc(SCC(=O)O)cc1 (stereo partly shown) [Compound No. 04726]")
3.1
>>> recorded_result("COC(=O)COc1ccc([C@@H](N)C(=O)NC2C(=O)N3C(C(=O)O)=C(CSc4nnnn4C)CSC23)cc1 (stereo partly shown) [Compound No. 26436]")
6.3
>>> recorded_result("Cc1nnc(SCC2=C(C(=O)O)N3C(=O)C(NC(=O)[C@H](N)c4ccc(OCC(=O)O)cc4)C3SC2)s1 (stereo partly shown) [Compound No. 59216]")
3.1
>>> recorded_result("NC(=O)COc1ccc([C@@H](N)C(=O)NC2C(=O)N3C(C(=O)O)=C(CSc4c[nH]nn4)CSC23)cc1 (stereo partly shown) [Compound No. 91726]")
12.5
>>> recorded_result("COC(=O)CNc1ccc([C@@H](N)C(=O)NC2C(=O)N3C(C(=O)O)=C(CSc4nnc(C)s4)CSC23)cc1 (stereo partly shown) [Compound No. 96146]")
50
>>> recorded_result("Cc1nnc(SCC2=C(C(=O)O)N3C(=O)C(NC(=O)C(N)c4ccc(OCC(N)=O)cc4)C3SC2)s1 (stereo not shown) [*71816]")
25

###

System: Klebs.pneumo. 4200
experiment: In vivo activity (ED50) against Klebs.pneumo. 4200
condition: sc, Klebs.pneumo. 4200, s.c.; read-out: ED50
experimental-endpoint: ED50 (mg/kg)

>>> recorded_result("COC(=O)CNc1ccc([C@@H](N)C(=O)NC2C(=O)N3C(C(=O)O)=C(CSc4nnc(C)s4)CSC23)cc1 (stereo partly drawn)")
2.9
>>> recorded_result("Cc1nnc(SCC2=C(C(=O)O)N3C(=O)C(NC(=O)[C@H](N)c4ccc(SCC(=O)O)cc4)C3SC2)s1 (stereo partly drawn)")
11.5
>>> recorded_result("NC(=O)COc1ccc([C@@H](N)C(=O)NC2C(=O)N3C(C(=O)O)=C(CSc4c[nH]nn4)CSC23)cc1 (stereo partly drawn)")
12.5

###

// reported MIC for each item listed
Tested on: Strep. faecalis HH 34358
experiment: In vitro antibacterial activity (MIC)
Type: cell-based
condition: Enterococcus faecalis, HH34358; Strep. faecalis HH 34358, in vitro
experimental-endpoint: MIC (µg/mL)

>>> recorded_result("Cc1nnc(SCC2=C(C(=O)O)N3C(=O)C(NC(=O)[C@H](N)c4ccc(OCC(=O)O)cc4)C3SC2)s1 (stereo partly drawn)")
100
>>> recorded_result("Cc1nnc(SCC2=C(C(=O)O)N3C(=O)C(NC(=O)[C@H](N)c4ccc(SCC(N)=O)cc4)C3SC2)s1 (stereo partly drawn)")
50
>>> recorded_result("N[C@@H](C(=O)NC1C(=O)N2C(C(=O)O)=C(CSc3c[nH]nn3)CSC12)c1ccc(OCC(=O)O)cc1 (stereo partly drawn)")
200

###

Test system: E.coli SK 12140
experiment: In vitro antibacterial activity (MIC)
Type: cell-based
condition: Escherichia coli, SK12140; E.coli SK 12140, in vitro; read-out: MIC
experimental-endpoint: MIC (µg/mL)

>>> recorded_result("CC1=C(C(=O)O)N2C(=O)C(NC(=O)[C@H](N)c3ccc(NCC(=O)O)cc3)C2SC1 (some centres unmarked) [Compound No. 51436]")
25
>>> recorded_result("COC(=O)CNc1ccc([C@@H](N)C(=O)NC2C(=O)N3C(C(=O)O)=C(CSc4nnc(C)s4)CSC23)cc1 (some centres unmarked) [Compound No. 96146]")
50
>>> recorded_result("CC1=C(C(=O)O)N2C(=O)C(NC(=O)C(N)c3ccc(OCC(=O)O)cc3)C2SC1 (racemic) [*08016]")
50
>>> recorded_result("Cn1nnnc1SCC1=C(C(=O)O)N2C(=O)C(NC(=O)[C@H](N)c3ccc(NCC(=O)O)cc3)C2SC1 (some centres unmarked) [Compound No. 76746]")
1.6
>>> recorded_result("N[C@@H](C(=O)NC1C(=O)N2C(C(=O)O)=C(CSc3c[nH]nn3)CSC12)c1ccc(OCC(=O)O)cc1 (some centres unmarked) [Compound No. 03326]")
6.3

###

Test system: E. coli HH 33779
experiment: In vitro antibacterial activity (MIC)
Assay type: cell-based
condition: Escherichia coli, HH33779; E. coli HH 33779, in vitro; read-out: MIC
experimental-endpoint: log10 of MIC (log10 of the value in µg/mL)

>>> recorded_result("Cc1nnc(SCC2=C(C(=O)O)N3C(=O)C(NC(=O)[C@H](N)c4ccc(OCC(=O)O)cc4)C3SC2)s1 (stereo partly drawn)")
1.10
>>> recorded_result("Cc1nnc(SCC2=C(C(=O)O)N3C(=O)C(NC(=O)[C@H](N)c4ccc(NCC(N)=O)cc4)C3SC2)s1 (stereo partly drawn)")
1.70
>>> recorded_result("NC(=O)COc1ccc([C@@H](N)C(=O)NC2C(=O)N3C(C(=O)O)=C(CSc4c[nH]nn4)CSC23)cc1 (stereo partly drawn)")
1.40
>>> recorded_result("Cn1nnnc1SCC1=C(C(=O)O)N2C(=O)C(NC(=O)[C@H](N)c3ccc(OCC(N)=O)cc3)C2SC1 (stereo partly drawn)")
1.40
>>> recorded_result("N[C@@H](C(=O)NC1C(=O)N2C(C(=O)O)=C(CSc3c[nH]nn3)CSC12)c1ccc(OCC(=O)O)cc1 (stereo partly drawn)")
1.40
>>> recorded_result("COC(=O)COc1ccc([C@@H](N)C(=O)NC2C(=O)N3C(C(=O)O)=C(CSc4c[nH]nn4)CSC23)cc1 (stereo partly drawn)")
2.00
>>> recorded_result("N[C@@H](C(=O)NC1C(=O)N2C(C(=O)O)=C(CSc3c[nH]nn3)CSC12)c1ccc(SCC(=O)O)cc1 (stereo partly drawn)")
1.10
>>> recorded_result("Cn1nnnc1SCC1=C(C(=O)O)N2C(=O)C(NC(=O)[C@H](N)c3ccc(NCC(=O)O)cc3)C2SC1 (stereo partly drawn)")
0.20
>>> recorded_result("COC(=O)CNc1ccc([C@@H](N)C(=O)NC2C(=O)N3C(C(=O)O)=C(CSc4nnc(C)s4)CSC23)cc1 (stereo partly drawn)")
2.00
>>> recorded_result("Cc1nnc(SCC2=C(C(=O)O)N3C(=O)C(NC(=O)[C@H](N)c4ccc(SCCC(=O)O)cc4)C3SC2)s1 (stereo partly drawn)")
1.40
>>> recorded_result("CC1=C(C(=O)O)N2C(=O)C(NC(=O)C(N)c3ccc(OCC(=O)O)cc3)C2SC1 (racemic)")
1.70
>>> recorded_result("CC(=O)OCC1=C(C(=O)O)N2C(=O)C(NC(=O)[C@H](N)c3ccc(OCC(=O)O)cc3)C2SC1 (stereo partly drawn)")
1.40
>>> recorded_result("CC1=C(C(=O)O)N2C(=O)C(NC(=O)[C@H](N)c3ccc(NCC(=O)O)cc3)C2SC1 (stereo partly drawn)")
1.40
>>> recorded_result("CC1=C(C(=O)O)N2C(=O)C(NC(=O)[C@H](N)c3ccc(SCC(=O)O)cc3)C2SC1 (stereo partly drawn)")
1.70
>>> recorded_result("CC1=C(C(=O)O)N2C(=O)C(NC(=O)[C@H](N)c3ccc(OCC(N)=O)cc3)C2SC1 (stereo partly drawn)")
1.70
>>> recorded_result("Cc1nnc(SCC2=C(C(=O)O)N3C(=O)C(NC(=O)[C@H](N)c4ccc(SCC(N)=O)cc4)C3SC2)s1 (stereo partly drawn)")
1.40
>>> recorded_result("Cc1nnc(SCC2=C(C(=O)O)N3C(=O)C(NC(=O)[C@H](N)c4ccc(SCC(=O)O)cc4)C3SC2)s1 (stereo partly drawn)")
1.10
>>> recorded_result("COC(=O)COc1ccc([C@@H](N)C(=O)NC2C(=O)N3C(C(=O)O)=C(CSc4nnc(C)s4)CSC23)cc1 (stereo partly drawn)")
1.70
>>> recorded_result("Cc1nnc(SCC2=C(C(=O)O)N3C(=O)C(NC(=O)[C@H](N)c4ccc(NCC(=O)O)cc4)C3SC2)s1 (stereo partly drawn)")
0.80
>>> recorded_result("Cc1nnc(SCC2=C(C(=O)O)N3C(=O)C(NC(=O)C(N)c4ccc(OCC(N)=O)cc4)C3SC2)s1 (stereo not drawn)")
1.70
>>> recorded_result("Cn1nnnc1SCC1=C(C(=O)O)N2C(=O)C(NC(=O)[C@H](N)c3ccc(OCC(=O)O)cc3)C2SC1 (stereo partly drawn)")
1.10
>>> recorded_result("COC(=O)COc1ccc([C@@H](N)C(=O)NC2C(=O)N3C(C(=O)O)=C(CSc4nnnn4C)CSC23)cc1 (stereo partly drawn)")
1.10
